target: RhlR (Pseudomonas aeruginosa, UniProt P54292); test: P. aeruginosa PAO-JP2 RhlR reporter; format: cell-based; settings: P. aeruginosa RhlR reporter strain, efficacy
Sequence (P54292 whole entry): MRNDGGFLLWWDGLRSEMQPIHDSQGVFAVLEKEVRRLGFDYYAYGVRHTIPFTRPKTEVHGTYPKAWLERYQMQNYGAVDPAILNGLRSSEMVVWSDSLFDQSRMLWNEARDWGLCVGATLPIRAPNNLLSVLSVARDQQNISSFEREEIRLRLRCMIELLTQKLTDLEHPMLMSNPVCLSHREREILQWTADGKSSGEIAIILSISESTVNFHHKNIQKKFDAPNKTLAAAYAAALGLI
Max. RhlR Activation: recorded values

{"compound": "CC(C)CC(=O)N[C@H]1CCOC1=O", "system": "RhlR (Pseudomonas aeruginosa, UniProt P54292)", "Max. RhlR Activation, %": 94}
{"compound": "O=C(NC1CCOC1=O)C1CCC1 (stereo not shown)", "system": "RhlR (Pseudomonas aeruginosa, UniProt P54292)", "Max. RhlR Activation, %": 96}
{"compound": "CCCC(=O)N[C@H]1CCOC1=O", "system": "RhlR (Pseudomonas aeruginosa, UniProt P54292)", "Max. RhlR Activation, %": 100}
{"compound": "CC(C)CC(=O)NC1CCSC1=O (stereo not shown)", "system": "RhlR (Pseudomonas aeruginosa, UniProt P54292)", "Max. RhlR Activation, %": 91}
